This section presents compounds with their documented composite z-score values.
- Test system: PRMT1 (protein arginine N-methyltransferase 1)
- PROTOCOL_NOTES: PRMT1 binders on small-molecule microarrays, primary screen, biochemical, small-molecule microarray, 635 nm fluorescence (AID 1088);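 also: binding of Prmt1 protein to compounds spotted on small-molecule microarray slides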
- CONDITION: small-molecule microarray binding, higher = more signal

>  <COMPOUND>
CCN1C(=O)[C@H]2[C@H]3[C@H](O)[C@H](O)CC(=NOC[C@@H](C)[C@H](OCc4ccccc4)C(C)C)[C@@H]3CC[C@H]2C1=O

>  <composite z-score>
0.607

$$$$
>  <COMPOUND>
COc1ccc(O[C@H]2C=C[C@@H](c3ccccc3)O[C@@H]2COC(=O)CCC(C)=NO[C@H](C)c2cn([C@@H]3COC[C@H]3O)nn2)cc1

>  <composite z-score>
1.53

$$$$
>  <COMPOUND>
[N-]=[N+]=NCc1ccccc1[C@@H]1OC(c2ccc(OCCCO)cc2)=N[C@]1(Cc1ccccc1)C(=O)N1CCOCC1

>  <composite z-score>
1.53

$$$$
>  <COMPOUND>
CCOC(=O)[C@H](CC(C)C)NC(=O)CCC1CC(OC(=O)NCc2cccc3ccccc23)CC2(CCCC(COC(=O)NCCN3CCOCC3)O2)O1 (some centres not stated)

>  <composite z-score>
1.57

$$$$
>  <COMPOUND>
CCc1cc2c(nc1CC)CCN(CCC(C)=NOC[C@@H](O)[C@H]1O[C@@H]3OC(C)(C)O[C@@H]3[C@H]1O)C2

>  <composite z-score>
0.85

$$$$
>  <COMPOUND>
CC(CCN1CCCCc2nc(C)c(C)cc21)=NOC(C)CN1CCCCc2nc(C)c(C)cc21 (configuration not stated)

>  <composite z-score>
1.52

$$$$
>  <COMPOUND>
COc1cccc([C@H]2Oc3ccc(OC)cc3C(=NOC(C)CN3CCCc4nc(C)c(C)cc43)[C@@H]2O)c1 (some centres not stated)

>  <composite z-score>
1.32

$$$$

----------
- TGT: Pro-neuregulin-1, membrane-bound isoform (Homo sapiens)
- PROTOCOL_NOTES: NRG1 binders on small-molecule microarrays, primary screen, psychiatric disease protein project, biochemical, small-molecule microarray, fluorescence 635/667 (AID 1075);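 also: score combines 667 nm spot fluorescence with signal to noise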
- CONDITION: NRG1 binding, 635 nm fluorescence, higher = more signal

>  <ENTRY_SMILES>
O=C1[C@H]2[C@H]3[C@H](O)[C@H](O)CC(=NOCc4ccccc4)[C@H]3CC[C@H]2C(=O)N1c1cccc(Oc2ccccc2)c1

>  <composite z-score>
0.391

$$$$
>  <ENTRY_SMILES>
C=CCNC(=O)[C@H]1[C@@H]2C(=O)O[C@@H](c3ccccc3)[C@@H](c3ccccc3)N2[C@@H](c2ccc(O)cc2)[C@]12C(=O)N(C(=O)OCCOC)c1ccc(C#CC3=CCCCC3)cc12

>  <composite z-score>
2.03

$$$$
>  <ENTRY_SMILES>
CC(CCN1CCc2nc(-c3ccccc3)c(-c3ccccc3)cc2C1)=NO[C@H](C)c1cn([C@@H]2COC[C@H]2O)nn1

>  <composite z-score>
0.646

$$$$

----------
- TGT: Left-right determination factor 2 (Homo sapiens) (UniProt O00292)
- Sequence (O00292 whole entry, looked up): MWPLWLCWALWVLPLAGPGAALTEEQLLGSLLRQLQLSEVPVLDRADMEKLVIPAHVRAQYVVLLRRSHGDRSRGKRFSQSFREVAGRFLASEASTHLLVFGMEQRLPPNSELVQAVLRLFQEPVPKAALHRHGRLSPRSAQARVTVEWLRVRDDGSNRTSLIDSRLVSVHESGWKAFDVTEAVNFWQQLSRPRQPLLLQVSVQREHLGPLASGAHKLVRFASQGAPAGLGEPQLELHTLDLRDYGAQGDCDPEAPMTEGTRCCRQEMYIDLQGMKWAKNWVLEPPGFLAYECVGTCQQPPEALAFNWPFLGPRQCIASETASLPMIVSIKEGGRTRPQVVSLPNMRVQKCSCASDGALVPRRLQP
- PROTOCOL_NOTES: LEFTY2 binders on small-molecule microarrays, primary screen, biochemical, small-molecule microarray, 635 nm fluorescence scan (AID 1110)
- CONDITION: LEFTY2 binding, higher = more signal
We begin with a simple list: items and their reported composite z-score.

>  <MOLECULE>
CC(CCC(=O)OC[C@H]1O[C@H](C#Cc2ccccc2)C=C[C@@H]1Oc1ccc(C)cc1)=NOC[C@@H](O)[C@H]1O[C@@H]2OC(C)(C)O[C@@H]2[C@H]1O

>  <TGT>
Left-right determination factor 2 (Homo sapiens) (UniProt O00292)

>  <composite z-score>
-0.15

$$$$
>  <MOLECULE>
COC(=O)CC=C[C@@H](C)[C@@H](C=NO[C@@H](C)c1cc(-c2c(C)cc(C)cc2C)no1)OC

>  <TGT>
Left-right determination factor 2 (Homo sapiens) (UniProt O00292)

>  <composite z-score>
-0.627

$$$$
>  <MOLECULE>
C[N+](C)(C)CCCCCCNC(=O)[C@@H]1C[C@@H]2C(=O)N3CCC[C@H]3C(=O)N2[C@@H]1c1cccc(OCCO)c1

>  <TGT>
Left-right determination factor 2 (Homo sapiens) (UniProt O00292)

>  <composite z-score>
0.385

$$$$
>  <MOLECULE>
CO[C@H]1O[C@H](CO)[C@@H](OC(=O)Nc2ccc3c(c2)OCO3)[C@H](OC(=O)Nc2ccccc2-c2ccccc2)[C@@H]1OC(=O)Nc1ccccc1-c1ccccc1

>  <TGT>
Left-right determination factor 2 (Homo sapiens) (UniProt O00292)

>  <composite z-score>
0.232

$$$$
>  <MOLECULE>
O=C(NN=C1C[C@@H](O)[C@@H](O)[C@@H]2[C@@H]3C(=O)N(c4cccc(Oc5ccccc5)c4)C(=O)[C@@H]3CC[C@@H]12)OCc1ccccc1

>  <TGT>
Left-right determination factor 2 (Homo sapiens) (UniProt O00292)

>  <composite z-score>
0.127

$$$$
>  <MOLECULE>
C=COC[C@H]1CN2[C@@H](CC[C@@H](C)[C@@H]2c2ccc(Br)cc2)C(=O)O1

>  <TGT>
Left-right determination factor 2 (Homo sapiens) (UniProt O00292)

>  <composite z-score>
0.792

$$$$
>  <MOLECULE>
CN1C(=O)C2C=CC(C(O)c3ccc(Br)cc3)N(N(c3ccccc3)c3ccccc3)C2C1=O (configuration not stated)

>  <TGT>
Left-right determination factor 2 (Homo sapiens) (UniProt O00292)

>  <composite z-score>
-0.0937

$$$$
>  <MOLECULE>
COC(=O)[C@@H]1N=C(c2ccc(OCCCO)cc2)O[C@@H]1c1ccccc1N=[N+]=[N-]

>  <TGT>
Left-right determination factor 2 (Homo sapiens) (UniProt O00292)

>  <composite z-score>
-0.187

$$$$
>  <MOLECULE>
CCN1C(=O)[C@H]2[C@H]3[C@H](O)[C@H](O)CC(=NOCC=C(C)CCC=C(C)C)[C@H]3CC[C@H]2C1=O

>  <TGT>
Left-right determination factor 2 (Homo sapiens) (UniProt O00292)

>  <composite z-score>
1.01

$$$$
>  <MOLECULE>
COC(=O)[C@@]1(Cc2ccc(OC)cc2)[C@H]2c3cc(C(=O)N4CCCC4)n(Cc4cc(F)c(F)c(F)c4)c3C[C@H]2CN1C(=O)c1ccccc1

>  <TGT>
Left-right determination factor 2 (Homo sapiens) (UniProt O00292)

>  <composite z-score>
0.342

$$$$
>  <MOLECULE>
CO[C@H]1COC(=O)[C@@H]2CCCN2C(=O)CC=C[C@@H](C)[C@H](OC)COC(=O)CC=C[C@@H]1C

>  <TGT>
Left-right determination factor 2 (Homo sapiens) (UniProt O00292)

>  <composite z-score>
1.47

$$$$
>  <MOLECULE>
C#C[C@@H](CC)O[Si](C#Cc1ccc(Oc2ccccc2)cc1)(C(C)C)C(C)C

>  <TGT>
Left-right determination factor 2 (Homo sapiens) (UniProt O00292)

>  <composite z-score>
0.341

$$$$
>  <MOLECULE>
CC(C)=NOCc1cccc(-c2cc(-c3ccccc3)no2)c1

>  <TGT>
Left-right determination factor 2 (Homo sapiens) (UniProt O00292)

>  <composite z-score>
0.71

$$$$
>  <MOLECULE>
CC(C)c1ccc(NN2C(C(O)c3ccc4c(c3)OCO4)C=CC3C(=O)N(c4ccccc4)C(=O)C32)cc1 (configuration not stated)

>  <TGT>
Left-right determination factor 2 (Homo sapiens) (UniProt O00292)

>  <composite z-score>
0.168

$$$$
>  <MOLECULE>
CC[C@@H](c1ccccc1)n1c(=O)n2n(c1=O)[C@H]1[C@H](O)[C@@H]3O[C@@H]3C(=NOCC=C(C)CCC=C(C)C)[C@H]1CC2

>  <TGT>
Left-right determination factor 2 (Homo sapiens) (UniProt O00292)

>  <composite z-score>
0.827

$$$$
>  <MOLECULE>
CC(CCN1CCc2nc(-c3ccccc3)c(-c3ccccc3)cc2C1)=NO[C@H](C)c1cn([C@@H]2COC[C@H]2O)nn1

>  <TGT>
Left-right determination factor 2 (Homo sapiens) (UniProt O00292)

>  <composite z-score>
0.0738

$$$$
>  <MOLECULE>
COCCCNC(=O)[C@@]1(CCS(=O)(=O)c2ccccc2)N=C(c2ccc(OCCCO)cc2)O[C@H]1c1ccccc1

>  <TGT>
Left-right determination factor 2 (Homo sapiens) (UniProt O00292)

>  <composite z-score>
-0.133

$$$$
>  <MOLECULE>
CCOC(=O)[C@H](CC(C)C)NC(=O)CCC1CC(OC(=O)NCc2cccc3ccccc23)CC2(CCCC(COC(=O)NCCN3CCOCC3)O2)O1 (some centres not stated)

>  <TGT>
Left-right determination factor 2 (Homo sapiens) (UniProt O00292)

>  <composite z-score>
0.444

$$$$
>  <MOLECULE>
Cc1cc(C)c(-c2cc([C@H](C)ON=C3[C@H]4CCn5c(=O)n(-c6ccccc6)c(=O)n5[C@H]4[C@H](O)[C@@H]4O[C@H]34)on2)c(C)c1

>  <TGT>
Left-right determination factor 2 (Homo sapiens) (UniProt O00292)

>  <composite z-score>
0.59

$$$$
>  <MOLECULE>
O=C1[C@H]2[C@H]3[C@H](O)[C@H](O)CC(=NOCc4ccccc4)[C@@H]3CC[C@H]2C(=O)N1C1CCCCC1

>  <TGT>
Left-right determination factor 2 (Homo sapiens) (UniProt O00292)

>  <composite z-score>
-0.102

$$$$
>  <MOLECULE>
COc1ccc(O[C@H]2C=C[C@@H](c3ccccc3)O[C@@H]2COC(=O)CCC(C)=NOCC[C@@H]2C=C[C@H](OC(C)=O)[C@@H](COC(C)=O)O2)cc1

>  <TGT>
Left-right determination factor 2 (Homo sapiens) (UniProt O00292)

>  <composite z-score>
0.347

$$$$
>  <MOLECULE>
[N-]=[N+]=NCc1ccccc1[C@@H]1OC(c2ccc(OCCCO)cc2)=N[C@]1(Cc1ccccc1)C(=O)N1CCOCC1

>  <TGT>
Left-right determination factor 2 (Homo sapiens) (UniProt O00292)

>  <composite z-score>
0.343

$$$$
